From: patent US7105521B2

biological target: 5-HT2A receptor (Rattus norvegicus, UniProt P14842)
Sequence (P14842 whole entry): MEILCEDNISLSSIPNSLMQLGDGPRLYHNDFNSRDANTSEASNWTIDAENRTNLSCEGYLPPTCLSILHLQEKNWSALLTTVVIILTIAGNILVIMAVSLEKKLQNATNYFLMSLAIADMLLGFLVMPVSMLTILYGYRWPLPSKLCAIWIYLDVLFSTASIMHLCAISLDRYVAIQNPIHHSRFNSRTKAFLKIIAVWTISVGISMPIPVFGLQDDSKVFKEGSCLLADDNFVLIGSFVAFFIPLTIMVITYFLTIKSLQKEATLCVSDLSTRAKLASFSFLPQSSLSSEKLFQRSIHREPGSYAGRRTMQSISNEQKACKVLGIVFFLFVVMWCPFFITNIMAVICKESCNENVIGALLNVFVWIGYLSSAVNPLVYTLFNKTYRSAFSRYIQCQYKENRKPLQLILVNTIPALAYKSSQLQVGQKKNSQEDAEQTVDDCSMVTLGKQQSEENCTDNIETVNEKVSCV
ASSAY METRIC: Ki (nM)
Hi! Could you send only the number? It should be in nM, unit omitted.

Query string: State Ki on 5-HT2A receptor (Rattus norvegicus, UniProt P14842). Entry: CC=Cc1ccc(OCC(O)CN2CCN(c3ccccc3Cl)CC2)c(OC)c1 (stereo not shown)
Result string: 33.3

---

molecular target: β2 receptors (Rattus norvegicus, UniProt P10608)
Sequence (P10608 whole entry): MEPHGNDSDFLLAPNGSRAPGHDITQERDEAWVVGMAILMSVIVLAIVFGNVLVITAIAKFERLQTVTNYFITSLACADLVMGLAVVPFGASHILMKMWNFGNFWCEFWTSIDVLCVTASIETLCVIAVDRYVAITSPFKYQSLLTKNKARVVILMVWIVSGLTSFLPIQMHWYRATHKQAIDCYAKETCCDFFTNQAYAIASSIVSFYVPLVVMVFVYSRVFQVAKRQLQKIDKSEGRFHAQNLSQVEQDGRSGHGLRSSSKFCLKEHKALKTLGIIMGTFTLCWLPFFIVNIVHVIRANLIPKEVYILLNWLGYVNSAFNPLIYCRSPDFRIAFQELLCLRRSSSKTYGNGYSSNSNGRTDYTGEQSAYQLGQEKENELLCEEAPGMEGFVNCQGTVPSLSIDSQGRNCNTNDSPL
ASSAY METRIC: Ki

Query string: Return Ki for the following molecule: CC=Cc1ccc(OCC(O)CN2CCN(c3ccccc3Cl)CC2)c(OC)c1 (stereo not shown)
Result string: > 10 µM
